Recorded MIC values for a group of molecules are listed next.
tested on: Klebsiella pneumoniae ATCC 700603
Recorded endpoint: MIC (µM)

[[record]]
smiles_structure = "CC[C@H](C)[C@H](NC(=O)[C@H](CCCCN)NC(=O)[C@H](CCCCN)NC(=O)[C@H](C)NC(=O)[C@@H](NC(=O)[C@H](C)NC(=O)CNC(=O)[C@H](CC(C)C)NC(=O)[C@H](C)NC(=O)[C@H](CCCCN)NC(=O)[C@H](CC(C)C)NC(=O)[C@H](CC(N)=O)NC(=O)[C@@H](N)CC(C)C)C(C)C)C(=O)N[C@@H](CC(C)C)C(N)=O"
measured_on = "Klebsiella pneumoniae ATCC 700603"
qualifier_symbol = "="
quantitative_result = 64

[[record]]
smiles_structure = "CC[C@H](C)[C@@H]1NC(=O)CNC(=O)[C@H](CCCN=C(N)N)NC(=O)[C@H](Cc2ccc(O)cc2)NC(=O)[C@H](C)NC(=O)[C@H](C(C)C)NC(=O)[C@H](CCCN=C(N)N)NC(=O)[C@H](Cc2ccccc2)NC(=O)[C@@H](NC(=O)[C@H](Cc2c[nH]c3ccccc23)NC(=O)[C@@H](N)CCCCN)CSSC[C@@H](C(=O)N[C@@H](CCCN=C(N)N)C(=O)O)NC(=O)[C@H](CCCN=C(N)N)NC(=O)[C@H](CCCN=C(N)N)NC(=O)[C@H](Cc2ccc(O)cc2)NC(=O)[C@H](C)NC1=O"
measured_on = "Klebsiella pneumoniae ATCC 700603"
qualifier_symbol = "="
quantitative_result = 0.907

[[record]]
smiles_structure = "NC(=O)[C@H](Cc1c[nH]c2ccccc12)NC(=O)[C@H](CCCN=C(N)N)NC(=O)[C@H](Cc1c[nH]c2ccccc12)NC(=O)[C@H](Cc1c[nH]c2ccccc12)NC(=O)[C@H](Cc1c[nH]c2ccccc12)NC(=O)[C@H](CCCN=C(N)N)NC(=O)[C@@H](N)Cc1c[nH]c2ccccc12"
measured_on = "Klebsiella pneumoniae ATCC 700603"
qualifier_symbol = "="
quantitative_result = 8

[[record]]
smiles_structure = "NC(=O)[C@H](Cc1c[nH]c2ccccc12)NC(=O)[C@H](CCCN=C(N)N)NC(=O)[C@H](CCCN=C(N)N)NC(=O)[C@H](Cc1c[nH]c2ccccc12)NC(=O)[C@H](Cc1c[nH]c2ccccc12)NC(=O)[C@H](Cc1c[nH]c2ccccc12)NC(=O)[C@H](CCCN=C(N)N)NC(=O)[C@H](CCCN=C(N)N)NC(=O)[C@@H](N)Cc1c[nH]c2ccccc12"
measured_on = "Klebsiella pneumoniae ATCC 700603"
qualifier_symbol = "="
quantitative_result = 16

[[record]]
smiles_structure = "CC[C@H](C)[C@H](NC(=O)[C@H](CCCCN)NC(=O)[C@H](CCCCN)NC(=O)[C@H](C)NC(=O)[C@@H](NC(=O)[C@H](C)NC(=O)[C@H](CC(C)C)NC(=O)[C@H](CC(C)C)NC(=O)[C@H](C)NC(=O)[C@H](CCCCN)NC(=O)[C@H](CC(C)C)NC(=O)[C@H](CC(N)=O)NC(=O)[C@@H](N)CCCCN)C(C)C)C(=O)N[C@@H](CC(C)C)C(N)=O"
measured_on = "Klebsiella pneumoniae ATCC 700603"
qualifier_symbol = "="
quantitative_result = 16

[[record]]
smiles_structure = "CC[C@H](C)[C@H](N)C(=O)N[C@@H](CC(C)C)C(=O)NCC(=O)N[C@@H](CCCCN)C(=O)N[C@@H](CC(C)C)C(=O)N[C@@H](CC(C)C)C(=O)N[C@@H](CCCCN)C(=O)N[C@H](C(=O)N[C@@H](C)C(=O)N[C@@H](C)C(=O)NCC(=O)N[C@@H](CC(C)C)C(=O)N[C@@H](CC(C)C)C(=O)N[C@@H](CO)C(=O)N[C@@H](CC(N)=O)C(=O)N[C@@H](CC(C)C)C(N)=O)[C@@H](C)O"
measured_on = "Klebsiella pneumoniae ATCC 700603"
qualifier_symbol = "="
quantitative_result = 64

[[record]]
smiles_structure = "CSCC[C@H](NC(=O)[C@@H](N)[C@@H](C)O)C(=O)N[C@@H](CO)C(=O)N[C@@H](CC(C)C)C(=O)N[C@@H](CCCN=C(N)N)C(=O)N[C@@H](Cc1ccccc1)C(=O)N[C@@H](Cc1c[nH]c2ccccc12)C(=O)N[C@@H](CCCN=C(N)N)C(=O)N[C@@H](Cc1c[nH]c2ccccc12)C(=O)N[C@@H](CCCCN)C(=O)N[C@H](C(=O)N[C@@H](CCCN=C(N)N)C(=O)O)C(C)C"
measured_on = "Klebsiella pneumoniae ATCC 700603"
qualifier_symbol = ">"
quantitative_result = 76.8

[[record]]
smiles_structure = "CC[C@H](C)[C@H](NC(=O)[C@H](CCCN=C(N)N)NC(=O)[C@H](CCC(N)=O)NC(=O)[C@@H](NC(=O)[C@@H](NC(=O)[C@H](CCCN=C(N)N)NC(=O)[C@H](CCCCN)NC(C)=O)[C@@H](C)CC)C(C)C)C(=O)N[C@@H](CCCCN)C(=O)N[C@@H](CC(=O)O)C(=O)N[C@@H](Cc1ccccc1)C(=O)N[C@@H](CC(C)C)C(=O)N[C@@H](CCCN=C(N)N)C(N)=O"
measured_on = "Klebsiella pneumoniae ATCC 700603"
qualifier_symbol = "="
quantitative_result = 163

[[record]]
smiles_structure = "CC[C@H](C)[C@H](NC(=O)[C@H](CCCCN)NC(=O)[C@H](CCCN=C(N)N)NC(=O)[C@H](Cc1ccccc1)NC(=O)[C@H](CC(C)C)NC(=O)[C@H](CCCN=C(N)N)NC(=O)[C@@H](N)CCCCN)C(=O)N[C@@H](CC(C)C)C(=O)N[C@@H](CCCCN)C(=O)N[C@@H](Cc1ccc(O)cc1)C(=O)N[C@@H](CC(C)C)C(N)=O"
measured_on = "Klebsiella pneumoniae ATCC 700603"
qualifier_symbol = "="
quantitative_result = 5.75

[[record]]
smiles_structure = "CC[C@H](C)[C@H](NC(=O)[C@H](C)NC(=O)[C@H](CCCCN)NC(=O)[C@H](CC(C)C)NC(=O)[C@@H](N)CC(N)=O)C(=O)N[C@@H](C)C(=O)N[C@@H](C)C(=O)N[C@@H](CC(C)C)C(=O)N[C@@H](C)C(=O)N[C@@H](CCCCN)C(=O)N[C@@H](CCCCN)C(=O)N[C@@H](CC(C)C)C(=O)N[C@@H](CC(C)C)C(=O)O"
measured_on = "Klebsiella pneumoniae ATCC 700603"
qualifier_symbol = "="
quantitative_result = 14.6

[[record]]
smiles_structure = "C[C@@H](O)[C@H](NC(=O)[C@H](CCCCN)NC(=O)[C@H](Cc1c[nH]c2ccccc12)NC(=O)[C@H](CCCN=C(N)N)NC(=O)[C@H](CCCCN)NC(=O)[C@H](Cc1ccccc1)NC(=O)[C@H](Cc1ccccc1)NC(=O)CN)C(=O)N[C@@H](Cc1ccccc1)C(=O)N[C@@H](Cc1ccccc1)C(N)=O"
measured_on = "Klebsiella pneumoniae ATCC 700603"
qualifier_symbol = "="
quantitative_result = 32

[[record]]
smiles_structure = "CC[C@H](C)[C@H](NC(=O)[C@H](CCCCN)NC(=O)[C@H](CCCCN)NC(=O)[C@H](C)NC(=O)[C@@H](NC(=O)[C@H](C)NC(=O)[C@H](C)NC(=O)[C@H](CC(C)C)NC(=O)[C@H](C)NC(=O)[C@H](CCCCN)NC(=O)[C@H](CC(C)C)NC(=O)[C@H](CC(N)=O)NC(=O)CN)C(C)C)C(=O)N[C@@H](CC(C)C)C(N)=O"
measured_on = "Klebsiella pneumoniae ATCC 700603"
qualifier_symbol = "="
quantitative_result = 128

